- Tested on: MS2 coat protein
- METHOD: apparent Kd, MS2 coat protein; higher = weaker binding; RNA-MaP array
- PARTICULARS: designed as: OFF switch for flavin mononucleotide; no ligand
OUTCOME MEASURE: apparent Kd
A complete answer gives the number and then names the unit.

Request: apparent Kd, test system MS2 coat protein, entry GAUUUUAGUGAAGGAUAUACAAACAACAUGAGGAUCACCCAUGUCUGGAAUGAUCGCAGGGCCCGGUAGAAGGUCAUCAGAAAG
31.1 nM

Request: apparent Kd, test system MS2 coat protein, entry AAUGGAGUCGAGAAGGCAGCGACCCACUAAACCUGAGGAUAUCGUCUCCGAAAAUGGGUGGGUGUACAUGAGGAUCACCCAUGU
95.2 nM

Request: apparent Kd, test system MS2 coat protein, entry AAAAUAGCAGGAUAUACAUGAGGAUCACCCAUGUCAAGACAGCACGGUGCAAGGUAGGGUAGAAGGGCUAAUUG
22.8 nM

Request: apparent Kd, test system MS2 coat protein, entry UUACGGCAAGGAUAUACAUGAGGAUCACCCAUGUACUCUUUAUAAAUUAGUCAGCAUGGUAGAAGGUGCCGCUA
9.04 nM

Request: apparent Kd, test system MS2 coat protein, entry GAUAAAGUAGGAUAUACAUGAGGAUCACCCAUGUAGAGAGGAGAGCGUGCGAGAACCAGUAGAAGGACUAAACA
13.9 nM

Request: apparent Kd, test system MS2 coat protein, entry UGACCACAUGAGGAUCACCCAUGUCAGGAUAUAGGUACACUGGUACAGCCUUUUCGGCCUAGAAGGGACUCUCU
9.09 nM

Further cases:
Request: apparent Kd, test system MS2 coat protein, entry GUGUUAUAUCCGUAACAUGAGGAUCACCCAUGUGUGAGAUCGAAGGAUAUCUGUCUGAGCUCAAAAGAGAAGGUCGAUACAAUG
57.6 nM

----------
- Test system: MS2 coat protein
- METHOD: apparent Kd, MS2 coat protein; higher = weaker binding; RNA-MaP array; FMN 200 µM where present
- PARTICULARS: ligand present: flavin mononucleotide; designed as: OFF switch for flavin mononucleotide
Threshold rule: apparent Kd greater than or equal to 30 nM is true (1); below that, false (0).

Example entries and their recorded answers appear below.
Record ACAUAGUUAGGAUAUGCUGCUCGUCACUUGCGUGAUGAGUAGCAGAAGGAACAUGAGGAUCACCCAUGUAAAAA ; criterion: apparent Kd no lower than 30 nM. Met?
false (0)

Record GUUUCACAUGAGGAUCACCCAUGUGAGGAUAUAGAUUUGUUAACCGUAGUUAAUAGAUCUAGAAGGCGCGUGAU ; criterion: apparent Kd no lower than 30 nM. Met?
true (1)

Record AAUAUGAGCUGGAAUAAAACCUUGACAUGAGGAUCACCCAUGUAGGAUAUCAGCACGAUAAGUGCUGAGAAGGACAACCAGCUC ; criterion: apparent Kd no lower than 30 nM. Met?
false (0)

Record CGAGUCAUAGCUCCUUAGCCAGCCAGAAGGGUCUACAUGAGGAUCACCCAUGUGGUCUCGAAGGGACAGGAUAUGGAGGGCGUA ; criterion: apparent Kd no lower than 30 nM. Met?
false (0)

Record GGAUAGGACAGAGGAUAUACGUGCUAGAGAUACUAGCAAAAUUUCCUCACAUGAGGAUCACCCAUGUAGAAGGCUGUCCAAUCG ; criterion: apparent Kd no lower than 30 nM. Met?
true (1)

Further cases:
Record AAGAAACAUGAGGAUCACCCAUGUGAGGAUAUGAUGCGAAUUAUGUAUGUAGUAAGCAUCAGAAGGCACAAAGG ; criterion: apparent Kd no lower than 30 nM. Met?
true (1)

Record GGAUAGGACAGAGGAUAUACUUGCUAGAGAUACUAGCAAAAUUUCCUCACAUGAGGAUCACCCAUGUAGAAGGCUGUCCUAUCG ; criterion: apparent Kd no lower than 30 nM. Met?
true (1)

Record UUAGUGGUAGGAUAUCACCCAGGUUACAUGAGGAUCACCCAUGUGACUCAGCAGGCCAAGUGAGAAGGGCUGCUCC ; criterion: apparent Kd no lower than 30 nM. Met?
false (0)

Record CAAAGACAAGCAGGAUAUCACAUGAGGAUCACCCAUGUCGGGAUCACCUGAGAGUGUUUAUUAAGUGAGAAGGGCUAGAUCACC ; criterion: apparent Kd no lower than 30 nM. Met?
true (1)

Record GUCUCGAUGUAAGGAUAUGCAGUGGAUAACACUGCAGAAGGUACAUGAGGAUCACCCAUGUAACUCUAAUAAUAAUAACGAGAC ; criterion: apparent Kd no lower than 30 nM. Met?
false (0)

Record UUGGAGAUAGGAUAUACGAGGAGAGUUGAGGGAAGGUGAUGACAUGAGGAUCACCCAUGUAGAAGGAUCAGGAG ; criterion: apparent Kd no lower than 30 nM. Met?
true (1)

Record AAGUUUAACGAAGGAUAUGGUUACAUGAGGAUCACCCAUGUAUUUUUUGUGAUCUUGAAAUAGUUCCAGAAGGUCGUAUACAUA ; criterion: apparent Kd no lower than 30 nM. Met?
true (1)
